target: MtDXPS (Mycobacterium tuberculosis, UniProt P9WNS3); test: biochemical; conditions: Table 1B, oxime derivatives, MtDXPS; read-out: K i*
Sequence (P9WNS3 whole entry, looked up): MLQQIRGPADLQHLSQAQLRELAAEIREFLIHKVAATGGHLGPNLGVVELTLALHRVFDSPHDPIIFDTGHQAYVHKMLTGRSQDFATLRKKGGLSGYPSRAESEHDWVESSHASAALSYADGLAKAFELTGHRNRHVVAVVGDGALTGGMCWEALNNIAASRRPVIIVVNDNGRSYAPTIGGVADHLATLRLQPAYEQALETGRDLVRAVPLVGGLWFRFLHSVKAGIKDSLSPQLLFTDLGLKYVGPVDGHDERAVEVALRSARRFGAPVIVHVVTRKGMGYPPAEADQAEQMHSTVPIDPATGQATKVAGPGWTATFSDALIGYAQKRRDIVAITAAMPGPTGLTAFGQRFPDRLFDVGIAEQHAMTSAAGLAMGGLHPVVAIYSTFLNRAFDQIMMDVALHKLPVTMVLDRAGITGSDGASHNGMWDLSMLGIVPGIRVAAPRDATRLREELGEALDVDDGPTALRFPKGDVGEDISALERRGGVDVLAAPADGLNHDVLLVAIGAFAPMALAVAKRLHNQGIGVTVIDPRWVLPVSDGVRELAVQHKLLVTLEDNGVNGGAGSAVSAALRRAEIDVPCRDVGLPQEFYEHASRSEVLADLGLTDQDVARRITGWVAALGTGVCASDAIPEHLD
Recorded Ki, one value per entry.
Dear colleague, please return just the value in nM, with no unit written.

Answered cases to consult:
SMILES_ENTRY	UNIT_DESCRIPTOR	VALUE_OBSERVED
Nc1ccc(/C(Cc2ccc(Cl)cc2)=N/O)c(O)c1	nM	100
N/N=C(\Cc1ccc(Cl)cc1)c1ccc(O)cc1O	nM	400

Next:
## Task Look up Ki for this compound: COc1ccc(/C(Cc2ccc(Cl)cc2)=N/O)c(O)c1
## Result 500

###

tested on: E. coli strain BL21 (DE3) pQEYAEM; assay: microbe, parasite or virus in culture; assay type: cell-based; conditions: Escherichia coli, Fig. 6A; [IPTG] 0.5 mM (E. coli IspC overexpression)
Recorded MIC, one value per entry.
Dear colleague, please return just the value in µM, with no unit written.

Answered cases to consult:
COMPOUND	MIC [µM]
OCc1cn(Cc2ccc(Cl)c(Cl)c2)c2ccccc12 [Compound 7]	10
ON=C(Cc1ccc(Cl)cc1)c1ccc(O)cc1O [Compound 9]	10

## Task Given the entry Cc1nc(N)sc1-c1csc(Nc2ccc(C(F)(F)F)cc2)n1 [Compound 10] , what MIC was observed with E. coli strain BL21 (DE3) pQEYAEM?
## Result 17
